Reference source: PubChem BioAssay (NCI)

Test system: SF-295 CNS
assayOverview: NCI tumour cell line growth inhibition, 48 h
experimentalEndpoint: TGI

INSERT INTO assay_data (compound, reading) VALUES
  ('O=c1[nH]nc(-c2ccccc2)n1/N=C\CC/C=N\n1c(-c2ccccc2)n[nH]c1=O', '> 100 µM'),
  ('CCOC(=O)C1OC(=O)CC1C1(C(=O)OCC)C=CC(=O)O1 (stereo not drawn)', '> 100 µM');

# context switch: different compound, same TGI
Measured TGI of O=C(CC1(O)C(=O)Nc2c(Cl)cc(Cl)cc21)c1ccc(Br)cc1 (stereo not drawn) : > 55.4 µM

###

Tested on: NCI-H522 lung
assayOverview: NCI tumour cell line growth inhibition, 48 h
experimentalEndpoint: TGI

Solved cases (4 shown):
INSERT INTO assay_data (compound, testedon, reading) VALUES
  ('COc1cc2c(c(O)c1OC)C(=O)C1CCC(=O)N1C2c1cccc2ccccc12 (stereo not given)', 'NCI-H522 lung', '> 100 µM'),
  ('O=C1CC[C@H](NC(=O)Cc2ccccc2)C(=O)N1', 'NCI-H522 lung', '> 1250 µM'),
  ('NC1=NC(=O)[C@H](Cc2c[nH]c3ccccc23)N1C(=O)OCc1ccccc1', 'NCI-H522 lung', '> 100 µM'),
  ('c1ccc2c(c1)nnn2CN1CCOCC1', 'NCI-H522 lung', '> 100 µM');

Field: next compound
So for O=C(Cc1cc[n+]([O-])cc1)C(=O)Nc1cc(Cl)c(Cl)cc1Cl , the logged TGI turned out to be > 100 µM

###

Tested on: MOLT-4 leukemia
assayOverview: NCI tumour cell line growth inhibition, 48 h
Square brackets hold non-standard residues; d marks the D form. Peptide text beside a SMILES is read from it. * marks the point of attachment. Boc = CC(C)(C)OC(=O)*; OBn = c1ccc(CO*)cc1
experimentalEndpoint: TGI

Check out these entries, answers already filled in.
INSERT INTO measurements (compound, experimentalendpoint, reading) VALUES
  ('[N-]=[N+]=Nc1cc(=O)n(-c2ccccc2)c2ccccc12', 'TGI', '> 100 µM'),
  ('C[C@@H](NC(=O)CNC(=O)OC(C)(C)C)C(=O)N[C@@H](Cc1ccccc1)C(=O)OCc1ccccc1 (Boc-Gly-[dA]-Phe-OBn)', 'TGI', '88.1 µM'),
  ('COc1cc(C(=O)O)ccc1OS(=O)(=O)O', 'TGI', '> 100 µM'),
  ('C=CC(=O)C#CC#CC/C=C\CCCCCCC', 'TGI', '12.3 µM'),
  ('O=C(CC1(O)C(=O)Nc2c(Cl)cc(Cl)cc21)c1ccc(Br)cc1 (stereo not drawn)', 'TGI', '> 63.5 µM'),
  ('CC(=O)OCC1OC(N2C(=O)NC(=O)C3C=C4CCCCC4=CC32)C(OC(C)=O)C1OC(C)=O (stereo not drawn)', 'TGI', '> 100 µM');

Consider CC[C@H](C)[C@H](NC(=O)c1ccccn1)C(=O)N(C)[C@H](C[C@@H](OC(C)=O)c1nc(C(=O)N[C@@H](Cc2ccccc2)C[C@H](C)C(=O)OC)cs1)C(C)C . Its measured TGI is 90.2 µM

Noted for CC(C)(C)/C(O)=C\c1nc2ccc(C(F)(F)F)cc2[nH]c1=O : its TGI reads > 100 µM

Reported TGI of NC(N)=NN=C(c1ccccc1)c1ccccc1 : 91.7 µM

TGI reported for this compound O=C1C(=O)c2cc([N+](=O)[O-])ccc2-c2ccc([N+](=O)[O-])cc21 : 1.15 µM

For this compound ( O=C1/C=C/[C@@H](O)[C@@H]2C[C@@H](O)C[C@H]2/C=C/CCC[C@H](CCOCc2ccccc2)O1 ), measured TGI is > 43.7 µM

TGI measured on CC(C)(C)c1ccc(O)c(CN(Cc2c(O)ccc3ccccc23)C2CCCCC2)c1 = 54.9 µM

OC1CCCN(C2(c3cccs3)CCCCC2)C1 (stereo not drawn) has a reported TGI of > 100 µM

###

System: LOX IMVI melanoma
assayOverview: NCI tumour cell line growth inhibition, 48 h
experimentalEndpoint: TGI

Look over these answered cases.
INSERT INTO assay_data (compound, reading) VALUES
  ('CCc1n[nH]c(=O)n1/N=C/c1ccc(/C=N/n2c(CC)n[nH]c2=O)cc1', '> 100 µM'),
  ('COC(=O)C12C3C4(C(=O)OC)C1C1(C(=O)OC)C2C3(C(=O)OC)C41C(=O)N(C(C)C)C(C)C (stereo not drawn)', '> 100 µM'),
  ('O=C(CC1(O)C(=O)Nc2c(Cl)cc(Cl)cc21)c1ccc(Br)cc1 (stereo not drawn)', '> 50.2 µM'),
  ('COC(=O)C(Cc1c[nH]c2ccccc12)NP(=O)(O)OCC1OC(n2ccc(N)nc2=O)C(O)C1O (stereo not drawn)', '> 100 µM'),
  ('C[C@H]1[C@H](N2CCCC2)O[Si](C(C)(C)C)(C(C)(C)C)[C@@H]1C', '> 100 µM');

The compound CC(=O)OC1CN2CCC1CC2 (stereo not drawn) , when measured on LOX IMVI melanoma, yielded TGI of > 100 µM

Value sought: TGI, system LOX IMVI melanoma, item COC1=C(C)C(=O)C2=C(C1=O)[C@@H]1[C@@H]3Cc4c(OC(=O)CO)c(C)c(OC)c(O)c4[C@H](CNC(=O)C(C)=O)N3[C@@H](C#N)[C@H](C2)N1C . Result: < 0.01 µM

###

System: ACHN renal
assayOverview: NCI tumour cell line growth inhibition, 48 h
experimentalEndpoint: TGI

Record excerpt, results attached:
INSERT INTO measurements (compound, reading) VALUES
  ('O=c1[nH]nc(-c2ccccc2)n1/N=C\CC/C=N\n1c(-c2ccccc2)n[nH]c1=O', '> 100 µM'),
  ('Clc1ccc(COc2ccccc2/C=N/c2c(-c3ccco3)nc3ccccn23)c(Cl)c1', '> 100 µM'),
  ('COc1nc(-c2c[nH]c3ccccc23)cnc1N', '> 100 µM'),
  ('C=C(Cl)C(Cl)(CBr)CCCC(C)(C)Cl (stereo not given)', '19.6 µM'),
  ('COc1cc(/C=C(\NC(=O)c2ccccc2)c2nc3[nH]c(=S)[nH]c(=O)c3[nH]2)cc(OC)c1OC', '> 100 µM'),
  ('Cc1cc2c(O)c(c1)CN(Cc1ccccc1)Cc1cc(C)cc(c1O)CN(Cc1ccccc1)Cc1cc(C)cc(c1O)CN(Cc1ccccc1)C2', '> 100 µM'),
  ('O=C(C[n+]1cccc2cc(Cl)ccc21)c1ccc2c(c1)CCCC2', '18.5 µM'),
  ('O=S(=O)(c1ccc(Cl)cc1)c1ccccc1C1=NCCN1', '> 100 µM');

TGI on ACHN renal for Cc1ccc(S(=O)(=O)c2ccccc2)cc1 is > 100 µM

The measured TGI that Cc1cc(S(=O)(=O)n2cc[nH]c2=O)c(SCCCN(C)C)cc1Cl showed for ACHN renal is > 100 µM

For the compound CC(C)(C)OC(=O)NCCC1SC2C=CC1C2 (stereo not given) , the measured TGI on ACHN renal was > 100 µM

Value (TGI, ACHN renal) for record COc1ccc(C(C)c2cc3c(cc2O)OCO3)cc1 (stereo not given) = 47.6 µM

Assay ACHN renal, sample COC(=O)C12C3C4(C(=O)OC)C1C1(C(=O)OC)C2C3(C(=O)OC)C41C(=O)N(C(C)C)C(C)C (stereo not given) , TGI read: > 100 µM

Observed TGI on ACHN renal, entry [N-]=[N+]=Nc1cc(=O)n(-c2ccccc2)c2ccccc12 , equals > 100 µM

Query CC(=O)OCC1OC(N2C(=O)NC(=O)C3C=C4CCCCC4=CC32)C(OC(C)=O)C1OC(C)=O (stereo not given) on ACHN renal; TGI returned: > 100 µM

###

System: M19-MEL melanoma
assayOverview: NCI tumour cell line growth inhibition, 48 h
experimentalEndpoint: TGI

Example compounds with recorded TGI:
INSERT INTO results (compound, experimentalendpoint, reading) VALUES
  ('O=C1CC[C@H](NC(=O)Cc2ccccc2)C(=O)N1', 'TGI', '> 1250 µM'),
  ('COc1ccc(C(=O)N2c3ccccc3N(C)n3cccc3C2CC(=O)O)cc1 (stereo not drawn)', 'TGI', '> 100 µM');

The reported TGI of the compound CCOc1ccc([Se][Se]c2ccc(OCC)cc2)cc1 was > 100 µM

###

Entries and their GI50 values follow.
Tested on: HCT-15 colon
assayOverview: NCI tumour cell line growth inhibition, 48 h

INSERT INTO measurements (molecularstring, reading) VALUES
  ('COc1cc(/C=C/C(=O)c2ccc(Nc3nc(NCCO)nc(N4CCOCC4)n3)cc2)cc(OC)c1OC', '1430 nM'),
  ('CC[N+](CC)=c1cc2oc3cc(N(C)C)ccc3nc-2cc1C', '2750 nM'),
  ('COc1ccc2cc(C#Cc3ccc(-n4c(/C=C/c5cc(OC)c(OC)c(OC)c5)nc5ccccc5c4=O)c(C)c3)ccc2c1', '1220 nM'),
  ('O=C1Nc2ccccc2/C1=C\c1c(-c2ccccc2)nc2ccccn12', '3600 nM');

// O=C(Nc1ccc2[nH]c3ccccc3c2c1)c1ccccc1Cl : GI50 value = 2950 nM

Item: O=C(C[n+]1cccc2cc(Cl)ccc21)c1ccc2c(c1)CCCC2 | GI50: 11800 nM
